# Experiment summary: Plasma pharmacokinetics after single IP dose in CD-1 mice
# Assay type: in vivo, mouse
# Condition parameters: female, CD-1, mouse, plasma, ip, 5 mg/kg, CD-1 mice, single IP 5 mg/kg; read-out: Vd/F
Parameter: Vd/F

>>> print(df.to_string())
              compound_structure  assay_result
0  O=c1c(O)ccccc1-c1ccc2ccccc2c1     43.3 L/kg

---

# Experiment summary: Tissue distribution after single IP dose in CD-1 mice
# Assay type: in vivo, mouse
# Condition parameters: female, CD-1, mouse, lungs; 2 h after single IP 5 mg/kg; read-out: tissue concentration, lungs
Parameter: concentration at 2 h

In [3]: df
Out[3]:
                                   compound             parameter  assay_result
0  O=c1c(O)ccccc1-c1ccc2ccccc2c1 [MO-OH-Nap, MO-OH-Nap tropolone]  concentration at 2 h      181 ng/g
